Every entry's value here was drawn from PubChem BioAssay (NCI).

# method: NCI Yeast Anticancer Drug Screen. Data for the rad52 strain (AID 147)
# experimental_conditions: S. cerevisiae rad52 mutant growth inhibition; at 33.0 µM
About 79,000 compounds went through this panel and 15% of them were active in at least one assay; those are over-represented in the sample as a whole. Activity calls are given as the source filed them. Rule as the data show it: active = growth inhibition above about 70%; inactive = the rest.
Outcomes: active, inactive

[
  {
    "compound": "O=[N+]([O-])c1ccc([N+]2=NC(c3ccccc3)=NN(c3ccccc3)C2)cc1",
    "assigned_class": "inactive"
  },
  {
    "compound": "O=C(Nc1ccc(Cl)cc1)OCC#CCCl",
    "assigned_class": "inactive"
  },
  {
    "compound": "COc1cc(C2C3=C(COC3=O)Oc3cc4c(cc32)OCO4)ccc1O (centres undefined)",
    "assigned_class": "inactive"
  },
  {
    "compound": "CSc1nc(=S)[nH]c2c1c(C)nn2-c1ccccc1",
    "assigned_class": "inactive"
  },
  {
    "compound": "COc1cc2c(cc1[N+](=O)[O-])C(=O)C(Br)(Br)CCC2",
    "assigned_class": "active"
  },
  {
    "compound": "O=C1C=CC(=Nc2ccc3c(c2)Cc2cc(NC(=O)C(F)(F)F)ccc2-3)O1",
    "assigned_class": "inactive"
  },
  {
    "compound": "C[C@@H]1C[C@H]2[C@@H]3CCC4=CC(=O)C=C[C@]4(C)[C@@]3(Cl)[C@@H](Cl)C[C@]2(C)[C@@]1(O)C(=O)COP(=O)(O)O",
    "assigned_class": "inactive"
  },
  {
    "compound": "C[Si](C)(C)CNC(=O)OCc1ccccc1",
    "assigned_class": "inactive"
  },
  {
    "compound": "c1ccc(-c2nc3cccnc3s2)cc1",
    "assigned_class": "inactive"
  },
  {
    "compound": "c1ccc2c(c1)sc1nc3ccncc3nc12",
    "assigned_class": "inactive"
  },
  {
    "compound": "CSC(=S)Nc1cccc(C)n1",
    "assigned_class": "inactive"
  },
  {
    "compound": "Cc1cc(O)cc(O)c1N=Nc1ccc([N+](=O)[O-])cc1",
    "assigned_class": "inactive"
  },
  {
    "compound": "N#Cc1c(N)[nH]c2ccc(Sc3ccccc3)cc12",
    "assigned_class": "active"
  },
  {
    "compound": "COc1ccc2c(c1)C(=O)c1ccccc1C2",
    "assigned_class": "inactive"
  },
  {
    "compound": "CC(=O)OC1CCC2(C)C(=CCC3C4CCC5(OC6CC(C)CN(C(C)=O)C6C5C)C(C)=C4C(=O)C32)C1 (centres undefined)",
    "assigned_class": "active"
  },
  {
    "compound": "Cc1cc2c(cc1C(=O)CCC(=O)O)CC1(C2)Cc2cc(C)c(C(=O)CCC(=O)O)cc2C1",
    "assigned_class": "inactive"
  },
  {
    "compound": "Cc1ccc2ccc(O)cc2c1",
    "assigned_class": "inactive"
  },
  {
    "compound": "CC(C)C1=CCC2C(=C1)CCC1C(C)(C(=O)O)CCCC21C (centres undefined) (tested in a mixture with another compound)",
    "assigned_class": "inactive"
  },
  {
    "compound": "CC1(C)C(=O)OC(n2cc(F)c(=O)[nH]c2=O)C1=O (centres undefined)",
    "assigned_class": "inactive"
  },
  {
    "compound": "CC(C)/C(Cl)=N\\OC(=O)Nc1cccc(Cl)c1",
    "assigned_class": "inactive"
  },
  {
    "compound": "CN(CCc1ccccn1)c1ccc2c(c1)Cc1ccccc1-2",
    "assigned_class": "inactive"
  },
  {
    "compound": "CO[C@H]1C[C@](C)(O)Cc2cc3c(c(O)c21)C(=O)c1c(O)cc2c(c1C3=O)O[C@@H]1O[C@@]2(C)[C@H](O)[C@@H](N(C)C)[C@@H]1O",
    "assigned_class": "inactive"
  },
  {
    "compound": "CCCCN(CCCC)CCSc1ccc(Cl)cc1",
    "assigned_class": "inactive"
  },
  {
    "compound": "CCC[CH2][Ge]([CH2]CCC)([CH2]CCC)[O]C(=O)C(OC)c1ccccc1 (centres undefined)",
    "assigned_class": "inactive"
  },
  {
    "compound": "CCCCCCc1cc(C(=O)OC/C(C)=N/NC(N)=O)c2ccccc2n1",
    "assigned_class": "inactive"
  },
  {
    "compound": "O=C(c1ccc(Cl)cc1)C1OC12C(=O)Nc1ccccc12 (centres undefined)",
    "assigned_class": "active"
  },
  {
    "compound": "CNC(=O)OCc1c(COC(=O)NC)c(-c2ccc(-c3ccccc3)cc2)n(C)c1C",
    "assigned_class": "inactive"
  },
  {
    "compound": "CCCCCCCCCCC(=O)Cl",
    "assigned_class": "inactive"
  },
  {
    "compound": "CN(C)Cc1cc(N=Nc2ccc(Cl)cc2)cc(CN(C)C)c1O",
    "assigned_class": "inactive"
  },
  {
    "compound": "CN=C(N)N/N=C/c1ccc2c(c1)Cc1ccccc1-2",
    "assigned_class": "inactive"
  },
  {
    "compound": "Cc1cc(CO)c(O)c(CNCc2cc(C)cc(CO)c2O)c1",
    "assigned_class": "inactive"
  },
  {
    "compound": "O=C1C=CC(=O)N1c1ccc2c(c1)Cc1cc(NC(=O)C(F)(F)F)ccc1-2",
    "assigned_class": "inactive"
  },
  {
    "compound": "CNC(=O)OCc1c(COC(=O)NC)c(-c2ccc(Cl)c(Cl)c2)n2c1CCC2",
    "assigned_class": "active"
  },
  {
    "compound": "O=[N+]([O-])c1cc(CCl)ccc1CCl",
    "assigned_class": "active"
  },
  {
    "compound": "COC(=O)c1ccc([N+](=O)[O-])c(O)c1",
    "assigned_class": "inactive"
  },
  {
    "compound": "COc1ccc(/C=C/C(=O)C(C)(C)Br)cc1",
    "assigned_class": "active"
  },
  {
    "compound": "Clc1cccc(C(Nc2nncs2)Nc2nncs2)c1Cl",
    "assigned_class": "inactive"
  },
  {
    "compound": "CC(=O)OCCOCNC(=S)N/N=C(\\C)c1cnccn1",
    "assigned_class": "inactive"
  },
  {
    "compound": "Cc1ccc(CCC2=CCCc3c2ccc2ccccc32)cc1",
    "assigned_class": "inactive"
  },
  {
    "compound": "O=C(Nc1ccccc1)C(=O)C(C(=O)c1ccccc1)C(c1ccccc1)c1ccccc1 (centres undefined)",
    "assigned_class": "inactive"
  },
  {
    "compound": "COc1cc2c3c(cccc3c1)C(=O)N(CCN(C)C)C2=O",
    "assigned_class": "inactive"
  },
  {
    "compound": "COc1cc(C2SCC(=O)N2c2ccc(-c3ccc(-n4c(-c5ccccc5)nc5ccccc5c4=O)cc3)cc2)cc(OC)c1OC (centres undefined)",
    "assigned_class": "inactive"
  },
  {
    "compound": "CC[C@@]1(O)C(=O)OCc2c1cc1n(c2=O)Cc2cc3c(CN(C)C)c(O)ccc3nc2-1",
    "assigned_class": "inactive"
  },
  {
    "compound": "CCCCCCCCCCCC1=C(O)C(=O)C=C(O)C1=O",
    "assigned_class": "active"
  }
]
